- Test target: GCase (Homo sapiens, UniProt P04062)
- Construct: endogenous in cells; host or cells: HeLa cells
- Sequence (P04062 40-536): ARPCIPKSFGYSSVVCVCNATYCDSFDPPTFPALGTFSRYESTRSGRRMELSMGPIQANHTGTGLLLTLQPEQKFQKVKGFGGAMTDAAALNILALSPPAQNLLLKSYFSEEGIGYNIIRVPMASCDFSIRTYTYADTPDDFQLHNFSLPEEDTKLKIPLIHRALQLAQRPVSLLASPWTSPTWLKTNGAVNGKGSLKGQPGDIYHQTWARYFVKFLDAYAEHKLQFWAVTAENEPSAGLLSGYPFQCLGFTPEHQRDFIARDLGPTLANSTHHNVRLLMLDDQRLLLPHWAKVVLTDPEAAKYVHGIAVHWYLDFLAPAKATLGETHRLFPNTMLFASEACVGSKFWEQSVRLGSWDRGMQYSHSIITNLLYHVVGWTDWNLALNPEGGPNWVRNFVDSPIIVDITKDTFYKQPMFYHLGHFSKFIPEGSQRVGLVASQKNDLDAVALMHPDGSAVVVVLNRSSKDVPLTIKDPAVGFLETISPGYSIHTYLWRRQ
- Assay summary: activation of GCase in a live cell PFB assay in HELA cells
- Format: cell-based
- Applied conditions: activation of GCase, EC50 ranges
- Description: Exemplary compounds were evaluated for activation of GCase in a live cell PFB assay in HELA cells (essentially as described in Ysselstein et al., “LRRK2 kinase activity regulates lysosomal glucocerebrosidase in neurons derived from Parkinson's disease patients” Nature Communications (2019) 10:5570). […] EC50 ranges: A: <10 μM; B: >10-50 μM; C: >50-100 μM; D: >100 μM.
Observation type: EC50

Reference set (3 entries):
> print(dat)
                                   compound  observation.type   test.value
1  Cn1c(N2CCC3(CC2)CC(=O)N(c2ccnc(C(F)(F)F)c2)C3)nc2c(cnn2CC(F)F)c1=O [Cmpd 923]              EC50      < 10 µM
2  Cc1nn(C2COC2)c2nc(N3CCC4(CC3)CN(c3cc(C(F)(F)F)ccn3)C4)ncc12 [Cmpd 479]              EC50     > 100 µM
3  FC(F)Cn1ncc2ncc(N3CCC4(CC3)CC(Oc3ncccc3C(F)(F)F)C4)nc21 [Cmpd 708]              EC50  10 to 50 µM

Proceed to the following item.
Reported EC50 for FC(F)Cn1ncc2ncc(N3CCC4(CC3)CN(c3ccc(C(F)(F)F)cn3)C4)nc21 [Compound 78] : what is it?
10 to 50 µM

* * *

- Test target: GCase (Homo sapiens, UniProt P04062)
- Construct: endogenous in cells; host or cells: HeLa cells
- Assay summary: activation of GCase in a live cell PFB assay in HELA cells
- Format: cell-based
- Applied conditions: activation of GCase, EC50 ranges
- Protocol: Exemplary compounds were evaluated for activation of GCase in a live cell PFB assay in HELA cells (essentially as described in Ysselstein et al., “LRRK2 kinase activity regulates lysosomal glucocerebrosidase in neurons derived from Parkinson's disease patients” Nature Communications (2019) 10:5570). […] EC50 ranges: A: <10 μM; B: >10-50 μM; C: >50-100 μM; D: >100 μM.
Observation type: EC50

> print(dat)
                                   compound   test.value
1  Cc1nn(CC(F)F)c2nc(N3CCC4(CCN(c5cc(C(F)(F)F)ccn5)CC4)C3)cnc12  10 to 50 µM
2  FC(F)(F)c1ccc(N2CCC3(CCN(c4cncc(C(F)(F)F)n4)CC3)C2)cn1      < 10 µM
3  Cc1cnc(N2CC3(CCN(c4cnc5cnn(CC(F)F)c5n4)C3)C2)cn1  10 to 50 µM
4  FC(F)(F)c1cc(N2CCC3(C2)CN(c2cnc4cnn(C5COC5)c4n2)C3)ccn1      < 10 µM
5  CCN1C(=O)N(c2ccnc(C(F)(F)F)n2)C(=O)C12CCN(c1cnc3cnn(CC(F)F)c3n1)CC2  10 to 50 µM
6  O=C1N(c2cc(C(F)F)ccn2)CCC12CCN(c1cnc3cnn(CC(F)F)c3n1)CC2      < 10 µM
7  FC(F)Cn1ncc2ncc(N3CC4(CN(c5ccc(C(F)(F)F)nc5)CCO4)C3)nc21  10 to 50 µM

Field: EC50 (GCase (Homo sapiens, UniProt P04062)). Entry: FC(F)(F)c1cc(N2CCC3(CCN(c4ncc5cnn(C6COC6)c5n4)C3)C2)ccn1 (centres unmarked)
> 100 µM
